Form field: pIC50 (one value per entry).
target: serotonin (5-HT) uptake (Rattus norvegicus, UniProt P31652); construct: Crude synaptosomal preparations (P2) were isolated after differential centrifugation; experiment: Monoamine uptake into crude synaptosomal preparations (P2) of cerebral cortex and hippocampus, [3H]-5-HT
Sequence (P31652 whole entry): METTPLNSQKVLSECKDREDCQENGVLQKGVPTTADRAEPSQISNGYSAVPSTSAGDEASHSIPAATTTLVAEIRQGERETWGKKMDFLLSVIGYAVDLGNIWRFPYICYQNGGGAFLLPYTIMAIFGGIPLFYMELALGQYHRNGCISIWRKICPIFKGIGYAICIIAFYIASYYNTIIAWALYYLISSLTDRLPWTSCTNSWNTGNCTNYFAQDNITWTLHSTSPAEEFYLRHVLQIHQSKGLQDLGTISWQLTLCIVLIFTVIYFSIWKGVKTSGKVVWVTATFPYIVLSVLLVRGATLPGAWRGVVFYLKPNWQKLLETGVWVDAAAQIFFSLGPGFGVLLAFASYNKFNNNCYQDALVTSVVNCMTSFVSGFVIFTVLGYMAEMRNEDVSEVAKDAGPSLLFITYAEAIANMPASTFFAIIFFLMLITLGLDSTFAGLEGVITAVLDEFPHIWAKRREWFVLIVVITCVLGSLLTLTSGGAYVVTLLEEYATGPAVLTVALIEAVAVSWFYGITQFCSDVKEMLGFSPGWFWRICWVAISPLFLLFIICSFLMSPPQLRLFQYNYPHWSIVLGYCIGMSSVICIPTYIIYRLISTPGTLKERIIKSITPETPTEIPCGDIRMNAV
Lab note: report pIC50 as minus log10 of the concentration in molar units, number only.

{"columns": ["smiles string", "value"],
 "data": [
  ["O=C(CCN1CCN(Cc2ccccc2Cl)CC1)c1ccc2c(c1)CCN(Cc1ccccc1)CC2", 7.46],
  ["O=C(CCN1CCN(Cc2cccc(Cl)c2)CC1)c1ccc2c(c1)CCN(Cc1ccccc1)CC2", 7.38],
  ["CC(C)CN1CCc2ccc(C(=O)CCN3CCN(Cc4ccccc4)CC3)cc2CC1", 7.25],
  ["COc1ccc(CCN2CCc3ccc(C(=O)CCN4CCN(Cc5ccccc5)CC4)cc3CC2)cc1OC", 7.88],
  ["O=C(CCN1CCN(Cc2ccccc2)CC1)c1ccc2c(c1)CCN2Cc1ccccc1", 6.38],
  ["Cc1ccc(CN2CCc3ccc(C(=O)CCN4CCN(Cc5ccccc5)CC4)cc3CC2)cc1", 7.23],
  ["COc1ccc(CN2CCc3ccc(C(=O)CCN4CCN(Cc5ccccc5)CC4)cc3CC2)cc1", 7.26]
]}

Problem: Identify measured pIC50 corresponding to O=C(CCN1CCN(Cc2ccccc2)CC1)c1ccc2c(c1)CCN(CCc1ccccc1)CC2
Solution: 7.52

====

target: cholinesterase (Rattus norvegicus, UniProt P37136)
Sequence (P37136 32-614): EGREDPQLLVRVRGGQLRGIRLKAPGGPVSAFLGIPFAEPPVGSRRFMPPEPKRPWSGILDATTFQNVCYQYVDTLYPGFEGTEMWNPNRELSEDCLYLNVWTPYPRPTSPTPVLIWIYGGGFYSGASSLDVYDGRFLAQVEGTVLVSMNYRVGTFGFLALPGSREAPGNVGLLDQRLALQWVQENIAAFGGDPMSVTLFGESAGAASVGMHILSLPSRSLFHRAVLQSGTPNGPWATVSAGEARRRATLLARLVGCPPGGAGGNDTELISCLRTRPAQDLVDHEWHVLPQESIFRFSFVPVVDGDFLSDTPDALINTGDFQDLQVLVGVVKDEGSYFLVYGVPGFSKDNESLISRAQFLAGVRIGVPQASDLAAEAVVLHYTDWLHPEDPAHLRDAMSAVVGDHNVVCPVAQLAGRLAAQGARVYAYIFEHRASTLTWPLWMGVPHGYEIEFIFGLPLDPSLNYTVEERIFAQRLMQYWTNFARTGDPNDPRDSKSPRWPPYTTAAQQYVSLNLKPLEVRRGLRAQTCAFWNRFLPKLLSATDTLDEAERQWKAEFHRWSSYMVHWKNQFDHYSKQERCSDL
endpoint label: pIC50
A value of pIC50 is the negative decimal logarithm of a concentration given in moles per litre.

{"columns": ["smiles string", "value"],
 "data": [
  ["Cc1ccccc1CN1CCc2ccc(C(=O)CCN3CCN(Cc4ccccc4)CC3)cc2CC1", 7.20],
  ["O=C(CCN1CCN(Cc2ccccc2)CC1)c1ccc2c(c1)CNCCC2", 7.10],
  ["COc1ccc(CN2CCc3ccc(C(=O)CCN4CCN(Cc5ccccc5)CC4)cc3CC2)cc1OC", 7.67],
  ["CC(C)CN1CCc2ccc(C(=O)CCN3CCN(Cc4ccccc4)CC3)cc2CC1", 7.47],
  ["CCN1CCc2ccc(C(=O)CCN3CCN(Cc4ccccc4)CC3)cc2CC1", 7.73]
]}

Problem: State pIC50 (cholinesterase (Rattus norvegicus, UniProt P37136)) of O=C(CCN1CCN(Cc2ccccc2)CC1)c1ccc2c(c1)CN(Cc1ccccc1)CCC2 .
Solution: 6.27

Problem: Specify pIC50 for COc1ccc(CN2CCc3ccc(C(=O)CCN4CCN(Cc5ccccc5)CC4)cc3CC2)cc1 , system cholinesterase (Rattus norvegicus, UniProt P37136).
Solution: 7.59

Problem: Provide pIC50, system cholinesterase (Rattus norvegicus, UniProt P37136), entry CC(=O)N1CCc2cc(C(=O)CCN3CCN(Cc4ccccc4)CC3)ccc21
Solution: 7.60

Problem: State recorded pIC50 with cholinesterase (Rattus norvegicus, UniProt P37136), entry O=C(CCN1CCN(Cc2ccccc2)CC1)c1ccc2c(c1)CCN(CCc1ccccc1)CC2 , no comment.
Solution: 7.48

Problem: State recorded pIC50 with cholinesterase (Rattus norvegicus, UniProt P37136), entry Cc1cccc(CN2CCc3ccc(C(=O)CCN4CCN(Cc5ccccc5)CC4)cc3CC2)c1 , no comment.
Solution: 7.16

Problem: Provide the reported pIC50 (system: cholinesterase (Rattus norvegicus, UniProt P37136)) for COc1ccccc1CN1CCc2ccc(C(=O)CCN3CCN(Cc4ccccc4)CC3)cc2CC1
Solution: 7.65

Problem: Param request: pIC50 | system cholinesterase (Rattus norvegicus, UniProt P37136) | item N#Cc1ccc(CN2CCc3ccc(C(=O)CCN4CCN(Cc5ccccc5)CC4)cc3CC2)cc1
Solution: 7.47

Problem: Print cholinesterase (Rattus norvegicus, UniProt P37136) pIC50 for O=C(CCN1CCN(Cc2ccccc2)CC1)c1ccc2c(c1)CCN(Cc1cccc(F)c1)CC2 .
Solution: 7.32

Problem: GET pIC50 | system: cholinesterase (Rattus norvegicus, UniProt P37136) | item: O=C(CCN1CCN(Cc2ccccc2Cl)CC1)c1ccc2c(c1)CCN(Cc1ccccc1)CC2
Solution: 6.95

Problem: Recall the reported pIC50 of O=C(CCN1CCN(Cc2ccccc2)CC1)c1ccc2c(c1)CCN(C(=O)c1ccccc1)CC2 when tested on cholinesterase (Rattus norvegicus, UniProt P37136).
Solution: 7.08

Problem: System cholinesterase (Rattus norvegicus, UniProt P37136). Read-out pIC50. Item CN1CCc2ccc(C(=O)CCN3CCN(Cc4ccccc4)CC3)cc2CC1 . Report value.
Solution: 7.47
